Test: Bioavailability study in dog
Assay type: in vivo
Settings: plasma, po; Male beagle dog, 2.5 mg/kg p.o. vs 0.5 mg/kg i.v.
MEASURED PARAMETER: bioavailability (%)

{"COMPOUND STRUCTURE STRING": "O=c1ccc2ccc(O[C@@H]3C[C@H]4CC[C@@H](C3)N4)cc2o1", "NUMERIC READOUT": 84}

* * *

Assay: Exposure and tissue distribution after 14 days repeat dosing, mouse
Assay type: in vivo
Conditions: mouse, liver, po; Female mice, 90 mg/kg p.o. 14 days, 2 h post last dose; read-out: Liver concentration

{"MOLECULE": "O=c1ccc2ccc(O[C@@H]3C[C@H]4CC[C@@H](C3)N4)cc2o1 [Compound (I)]", "concentration at 2 h / ng/g": 63300}
